test system: LCLC-103H; assay: relative viability (nuclei count vs DMSO), 5 days (fraction); higher = more cells survive; conditions: first compound 0.005 µM
Listed next: entries and their corresponding relative viability.

molecule: CC1(C)CCC(c2ccc(Cl)cc2)=C(CN2CCN(c3ccc(C(=O)NS(=O)(=O)c4ccc(N[C@H](CCN5CCOCC5)CSc5ccccc5)c(S(=O)(=O)C(F)(F)F)c4)cc3)CC2)C1 [Navitoclax] + CCNC(=O)c1noc(-c2cc(C(C)C)c(O)cc2O)c1-c1ccc(CN2CCOCC2)cc1 [Luminespib] (partner 0.01 µM)
relative viability: 1.04
--
molecule: CC1(C)CCC(c2ccc(Cl)cc2)=C(CN2CCN(c3ccc(C(=O)NS(=O)(=O)c4ccc(N[C@H](CCN5CCOCC5)CSc5ccccc5)c(S(=O)(=O)C(F)(F)F)c4)cc3)CC2)C1 [Navitoclax] + C[C@@H](Oc1cc(-c2cnn(C3CCNCC3)c2)cnc1N)c1c(Cl)ccc(F)c1Cl [Crizotinib] (partner 1 µM)
relative viability: 1.05
--
molecule: CC1(C)CCC(c2ccc(Cl)cc2)=C(CN2CCN(c3ccc(C(=O)NS(=O)(=O)c4ccc(N[C@H](CCN5CCOCC5)CSc5ccccc5)c(S(=O)(=O)C(F)(F)F)c4)cc3)CC2)C1 [Navitoclax] + COc1cc2c(Oc3ccc(NC(=O)C4(C(=O)Nc5ccc(F)cc5)CC4)cc3F)ccnc2cc1OCCCN1CCOCC1 [Foretinib] (partner 0.25 µM)
relative viability: 0.676
--
molecule: CC1(C)CCC(c2ccc(Cl)cc2)=C(CN2CCN(c3ccc(C(=O)NS(=O)(=O)c4ccc(N[C@H](CCN5CCOCC5)CSc5ccccc5)c(S(=O)(=O)C(F)(F)F)c4)cc3)CC2)C1 [Navitoclax] + N=C(N)NC(=N)NCCc1ccccc1 [Phenformin] (partner 250 µM)
relative viability: 0.342
--
molecule: CC1(C)CCC(c2ccc(Cl)cc2)=C(CN2CCN(c3ccc(C(=O)NS(=O)(=O)c4ccc(N[C@H](CCN5CCOCC5)CSc5ccccc5)c(S(=O)(=O)C(F)(F)F)c4)cc3)CC2)C1 [Navitoclax] + Cc1cc(Nc2cc(N3CCN(C)CC3)nc(Sc3ccc(NC(=O)C4CC4)cc3)n2)n[nH]1 [Tozasertib] (partner 0.1 µM)
relative viability: 0.505
--
molecule: CC1(C)CCC(c2ccc(Cl)cc2)=C(CN2CCN(c3ccc(C(=O)NS(=O)(=O)c4ccc(N[C@H](CCN5CCOCC5)CSc5ccccc5)c(S(=O)(=O)C(F)(F)F)c4)cc3)CC2)C1 [Navitoclax] + Cc1nc(NC(=O)N2CCC[C@H]2C(N)=O)sc1-c1ccnc(C(C)(C)C(F)(F)F)c1 [Alpelisib] (partner 2 µM)
relative viability: 0.948
--
molecule: CC1(C)CCC(c2ccc(Cl)cc2)=C(CN2CCN(c3ccc(C(=O)NS(=O)(=O)c4ccc(N[C@H](CCN5CCOCC5)CSc5ccccc5)c(S(=O)(=O)C(F)(F)F)c4)cc3)CC2)C1 [Navitoclax] + NC(=O)Nc1cc(-c2cccc(F)c2)sc1C(=O)N[C@H]1CCCNC1 [AZD7762] (partner 0.2 µM)
relative viability: 0.806
